condition_label: in isobutanol, 323.15 K

[
  {
    "entry_smiles": "O=C(O)c1cccc2ccccc12",
    "solubility (mole fraction)": 0.0502
  }
]

----------
condition_label: in ethanol, 298.15 K
observable: solubility (mole fraction)

[
  {
    "entry_smiles": "O=C(O)c1cccc2ccccc12",
    "observable": "solubility (mole fraction)",
    "quantitative_readout": 0.0311
  }
]

----------
condition_label: in n-butanol, 303.15 K

[
  {
    "entry_smiles": "O=C(O)c1cccc2ccccc12",
    "solubility (mole fraction)": 0.0389
  }
]

----------
condition_label: in n-propanol, 313.15 K

[
  {
    "entry_smiles": "O=C(O)c1cccc2ccccc12",
    "solubility (mole fraction)": 0.0461
  }
]

Data origin: BigSolDB 2.1
